Tested on: PTPN2
assayExplanation: HiBiT-Degradation B16F10.4 PTPN2
Assay type: cell-based
particulars: B16F10.4 cells, 24.0 hours
readoutLabel: DC50

Fill in DC50 for record Cn1c(=O)n(C2CCC(=O)NC2=O)c2ccc(C3CCN(CCN4CCC[C@@H](COc5ccc6cc(O)c(N7CC(=O)NS7(=O)=O)c(F)c6c5)C4)CC3)cc21 (some centres unmarked) [Example 137]
50 to 200 nM

Return value of DC50 for input Cn1c(=O)n(C2CCC(=O)NC2=O)c2ccc(C3CCN(CC(=O)N4CCN(c5ccc6cc(O)c(N7CC(=O)NS7(=O)=O)c(F)c6c5)CC4)CC3)cc21 (centres unmarked) [Example 156] , no commentary.
200 to 1000 nM

Provide one value: measured DC50 of Cn1c(=O)n(C2CCC(=O)NC2=O)c2ccc(C3CCN(CCN4CCC[C@H](COc5ccc6cc(O)c(N7CC(=O)NS7(=O)=O)c(F)c6c5)C4)CC3)cc21 (some centres unmarked) [Example 147]
200 to 1000 nM

Provide only the value of recorded DC50 for Cn1c(=O)n(C2CCC(=O)NC2=O)c2ccc(C3CCN(C(=O)CCC(=O)NCCOc4ccc5cc(O)c(N6CC(=O)NS6(=O)=O)c(F)c5c4)CC3)cc21 (centres unmarked) [Example 30]
≥ 1000 nM

// fetch DC50 given entry O=C(CCOCCn1cc(CNc2cccc3c2C(=O)N(C2CCC(=O)NC2=O)C3=O)nn1)NCCOc1ccc2cc(O)c(N3CC(=O)NS3(=O)=O)c(F)c2c1 (centres unmarked) [Example 48]
≥ 1000 nM

Please supply the value of reported DC50 for the item O=C(CN1CCC(c2ccc(NC3CCC(=O)NC3=O)c(Oc3ccccc3)c2)CC1)NCCOc1ccc2cc(O)c(N3CC(=O)NS3(=O)=O)c(F)c2c1 (centres unmarked) [Example 96]
50 to 200 nM

Look up DC50 of Cn1c(=O)n(C2CCC(=O)NC2=O)c2ccc(-c3ccc(CC(=O)Nc4ccc5c(F)c(N6CC(=O)NS6(=O)=O)c(O)cc5c4)cc3F)cc21 (centres unmarked) [Example 118] and report it.
10 to 50 nM

In one line, give reported DC50 of the entry Cn1nc(C2CCC(=O)NC2=O)c2ccc([C@H]3CC[C@@H](CC(=O)Nc4ccc5c(F)c(N6CC(=O)NS6(=O)=O)c(O)cc5c4)CC3)cc21 (some centres unmarked) [Example 180] .
50 to 200 nM

Dear colleague, please send me the reported DC50 for Cn1c(=O)n(C2CCC(=O)NC2=O)c2ccc(Nc3ccc(NC(=O)c4ccc5c(F)c(N6CC(=O)NS6(=O)=O)c(O)cc5c4)cc3)cc21 (centres unmarked) [Example 132] when you can.
200 to 1000 nM

Please report the measured DC50 for O=C1CCC(N2C(=O)c3cccc(NCc4cn(C5CN(CC(=O)Nc6ccc7c(F)c(N8CC(=O)NS8(=O)=O)c(O)cc7c6)C5)nn4)c3C2=O)C(=O)N1 (centres unmarked) [Example 58]
≥ 1000 nM

Recall and state the measured DC50 for Cn1c(=O)n(C2CCC(=O)NC2=O)c2ccc(C3CCN(Cc4nnc(-c5ccc6c(F)c(N7CC(=O)NS7(=O)=O)c(O)cc6c5)o4)CC3)cc21 (centres unmarked) [Example 146] .
200 to 1000 nM
